- MEASURED TARGET: human TRPM2 channels (Homo sapiens)
- Sequence (O94759 whole entry): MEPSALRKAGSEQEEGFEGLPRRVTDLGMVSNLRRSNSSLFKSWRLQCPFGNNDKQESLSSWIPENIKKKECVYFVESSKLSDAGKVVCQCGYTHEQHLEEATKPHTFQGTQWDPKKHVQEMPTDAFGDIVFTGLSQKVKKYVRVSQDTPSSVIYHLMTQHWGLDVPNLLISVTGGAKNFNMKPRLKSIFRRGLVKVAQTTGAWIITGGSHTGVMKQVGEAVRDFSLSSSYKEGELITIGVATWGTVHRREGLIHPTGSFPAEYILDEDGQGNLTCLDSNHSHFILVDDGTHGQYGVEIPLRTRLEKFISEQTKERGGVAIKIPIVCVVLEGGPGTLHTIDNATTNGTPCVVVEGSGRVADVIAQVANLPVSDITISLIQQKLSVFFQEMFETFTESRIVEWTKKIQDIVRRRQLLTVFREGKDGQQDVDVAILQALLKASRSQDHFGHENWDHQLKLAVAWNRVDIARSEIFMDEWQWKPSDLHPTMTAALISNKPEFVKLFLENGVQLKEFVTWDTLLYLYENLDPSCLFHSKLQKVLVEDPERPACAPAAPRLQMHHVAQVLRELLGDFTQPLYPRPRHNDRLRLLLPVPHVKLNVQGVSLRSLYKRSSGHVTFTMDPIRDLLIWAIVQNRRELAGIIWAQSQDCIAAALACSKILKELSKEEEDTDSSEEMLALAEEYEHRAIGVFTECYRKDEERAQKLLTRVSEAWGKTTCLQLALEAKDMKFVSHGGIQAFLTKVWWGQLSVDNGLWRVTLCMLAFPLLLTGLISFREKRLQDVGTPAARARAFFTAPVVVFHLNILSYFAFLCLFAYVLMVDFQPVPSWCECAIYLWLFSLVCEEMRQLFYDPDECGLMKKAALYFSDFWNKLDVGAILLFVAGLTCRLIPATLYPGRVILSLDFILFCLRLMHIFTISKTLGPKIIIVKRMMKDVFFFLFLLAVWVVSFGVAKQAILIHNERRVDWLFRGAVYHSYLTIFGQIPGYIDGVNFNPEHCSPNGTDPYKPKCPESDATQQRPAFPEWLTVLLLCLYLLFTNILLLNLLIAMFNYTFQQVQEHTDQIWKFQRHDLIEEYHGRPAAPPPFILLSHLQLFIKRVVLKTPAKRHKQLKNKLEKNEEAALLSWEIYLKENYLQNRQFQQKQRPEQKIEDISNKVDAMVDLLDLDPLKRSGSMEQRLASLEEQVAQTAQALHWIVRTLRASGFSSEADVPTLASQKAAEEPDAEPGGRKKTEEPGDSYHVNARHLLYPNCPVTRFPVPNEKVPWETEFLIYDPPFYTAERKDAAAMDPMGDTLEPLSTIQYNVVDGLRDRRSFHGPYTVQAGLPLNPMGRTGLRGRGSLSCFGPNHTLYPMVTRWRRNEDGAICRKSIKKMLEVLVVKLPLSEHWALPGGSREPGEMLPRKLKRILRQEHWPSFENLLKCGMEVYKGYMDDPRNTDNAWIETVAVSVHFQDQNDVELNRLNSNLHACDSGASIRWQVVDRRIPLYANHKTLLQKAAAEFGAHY
- PROTOCOL NOTES: whole cell patch clamp, inhibition of TRPM2 channel current
- ASSAY CONDITIONS: HEK293 cells stably expressing human TRPM2, 500 μM ADPR
QUANTITY KIND: IC50

# COMPOUND, IC50
data = [
    ("O=C(c1ccccn1)c1cc(C(=O)N2CCCC2)cc2cccn12", "10 to 20 µM"),
    ("O=C(c1ccccc1)c1cc(C(=O)N2CCCC2)cc2cccn12", "10 to 20 µM"),
    ("CCCOC(=O)c1cc(C(=O)c2ccccc2)n2cccc2c1 [II-2, 5-benzoimide 7-carboxypropyl ester]", "1 to 10 µM"),
    ("CCCC(=O)OC(c1ccccc1)c1cc(C(=O)N(CC)CC)cc2cccn12 (stereo not drawn)", "20 to 50 µM"),
    ("O=C(c1ccccn1)c1cc(C(=O)N2CCNCC2)cc2cccn12 [II-36]", "20 to 50 µM"),
    ("COC(=O)c1cc(C(=O)c2ccc(Cl)cc2)n2ccnc2c1", "10 to 20 µM"),
    ("CCOC(=O)c1cc(C(O)c2ccccc2)n2ccnc2c1 (stereo not drawn)", "20 to 50 µM"),
    ("CCOC(=O)c1cc(C(=O)c2ccc(F)cc2)n2cccc2c1", "10 to 20 µM"),
    ("CCOC(=O)c1cc(C(=O)c2cccc(C)c2)n2cccc2c1", "1 to 10 µM"),
    ("CCCOC(c1ccccc1)c1cc(C(=O)OCC)cc2cccn12 (stereo not drawn)", "10 to 20 µM"),
]

Look up human TRPM2 channels (Homo sapiens) data: IC50 of CCOC(=O)c1cc(C(=O)c2cccc(F)c2)n2cccc2c1 , then report it.
1 to 10 µM

Look up human TRPM2 channels (Homo sapiens) data: IC50 of CCN(CC)C(=O)c1cc(C(=O)c2ccccc2)n2ccnc2c1 , then report it.
10 to 20 µM
